# SYSTEM UNDER TEST: Neutrophil Elastase (recombinant neutrophil elastase) (Homo sapiens, UniProt P08246)
# Construct: purchased Enzo LifeSciences
# Sequence (P08246 30-267): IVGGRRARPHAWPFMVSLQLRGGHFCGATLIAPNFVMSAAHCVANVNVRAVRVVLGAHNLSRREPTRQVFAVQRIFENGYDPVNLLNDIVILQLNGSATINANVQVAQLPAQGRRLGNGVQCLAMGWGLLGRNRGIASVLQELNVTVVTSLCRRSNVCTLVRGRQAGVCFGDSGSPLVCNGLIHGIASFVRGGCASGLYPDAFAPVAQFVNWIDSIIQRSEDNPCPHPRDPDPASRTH
# METHOD NOTES: IC50 determination, spectrophotometric protease assay
# Type: biochemical
# EXPERIMENTAL CONTEXT: read-out: NE IC50; biotin probes; 15 min preincubation at 37 °C; mean ± SD
PARAMETER MEASURED: IC50

**Q:** So what's the measured IC50 for this one? O=C(CCCCC1SCC2NC(=O)NC21)NCCOCCOCCOCCn1cc(CCCOC(=O)NC(Cc2ccccc2)P(=O)(Oc2ccccc2)Oc2ccccc2)nn1 (stereo not shown) [compound 43]
**A:** > 10 µM
